All figures here come from patent US9546157B2.

biological target: GHSR1a (Homo sapiens); experiment: Calcium FLIPR assay, GHSR-1a antagonism (reduction of ghrelin response); conditions: HEK293/GHSR1a cells, ghrelin 10 nM
Sequence (Q92847 whole entry): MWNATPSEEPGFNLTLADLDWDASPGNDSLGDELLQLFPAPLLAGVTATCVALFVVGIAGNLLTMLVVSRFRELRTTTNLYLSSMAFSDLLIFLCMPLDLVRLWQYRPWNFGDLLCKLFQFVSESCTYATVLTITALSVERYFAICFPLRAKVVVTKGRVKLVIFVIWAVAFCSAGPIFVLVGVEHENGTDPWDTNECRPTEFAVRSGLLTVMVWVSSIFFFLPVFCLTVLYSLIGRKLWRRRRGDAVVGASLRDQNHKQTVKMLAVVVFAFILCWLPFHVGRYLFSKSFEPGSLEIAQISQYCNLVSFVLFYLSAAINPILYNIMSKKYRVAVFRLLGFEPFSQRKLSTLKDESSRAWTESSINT
// reported IC50 per item
# value in µM; strip the unit string

>>> df
                                   compound  unit_annotation  result
0  CC(NC(=O)N(C)C1CCN(C)CC1)c1ccc(-c2ccc(C(N)=O)s2)c(Cl)c1Cl (stereo not shown)               µM   0.005
1  CC(NC(=O)N(C)C1CCN(C)CC1)c1ccc(-c2c[nH]cn2)c(Cl)c1Cl (stereo not shown)               µM   0.018

Which IC50 is reported with GHSR1a (Homo sapiens) for this entry: CC(NC(=O)N(C)C1CCN(C)CC1)c1ccc(-c2cncc([N+](=O)[O-])c2)c(Cl)c1Cl (stereo not shown) ?
0.171

Which IC50 is reported with GHSR1a (Homo sapiens) for this entry: CCC(NC(=O)N(C)C1CCN(C)CC1)c1ccc(-c2cnccn2)c(Cl)c1Cl (stereo not shown) ?
0.003

Which IC50 is reported with GHSR1a (Homo sapiens) for this entry: CN1CCC(N(O)C(=O)NC(CC2CC2)c2ccc(-c3cnccn3)c(Cl)c2Cl)CC1 (single isomer, unassigned) [Compound H0781] ?
0.095

Which IC50 is reported with GHSR1a (Homo sapiens) for this entry: COCCc1cncc(-c2ccc(C(C)NC(=O)N(C)C3CCN(C)CC3)c(Cl)c2Cl)c1 (stereo not shown) ?
0.453

Which IC50 is reported with GHSR1a (Homo sapiens) for this entry: Cc1ccc(-c2ccc(C(C)NC(=O)N(C)C3CCN(C)CC3)c(Cl)c2Cl)o1 (stereo not shown) ?
0.004

Which IC50 is reported with GHSR1a (Homo sapiens) for this entry: CC(NC(=O)N(C)C1CCN(C)CC1)c1ccc(-c2ccc(C#N)nc2)c(Cl)c1Cl (stereo not shown) ?
0.132

Which IC50 is reported with GHSR1a (Homo sapiens) for this entry: CC(NC(=O)N(C)C1CCN(C)CC1)c1ccc(-c2ccncn2)c(Cl)c1Cl (stereo not shown) ?
0.279

Which IC50 is reported with GHSR1a (Homo sapiens) for this entry: Cc1cncc(-c2ccc(C(C)NC(=O)N(C)C3CCN(C)CC3)c(Cl)c2Cl)c1 (stereo not shown) ?
0.048

Which IC50 is reported with GHSR1a (Homo sapiens) for this entry: CCN(C(=O)NC(C)c1ccc(-c2cnccn2)c(Cl)c1Cl)C1CCN(C)CC1 (stereo not shown) ?
0.005

Which IC50 is reported with GHSR1a (Homo sapiens) for this entry: CC(NC(=O)N(C)C1CCN(C)CC1)c1ccc(C#Cc2ccccc2)c(Cl)c1Cl (stereo not shown) ?
0.517

Which IC50 is reported with GHSR1a (Homo sapiens) for this entry: CC(NC(=O)N(C)C1CCN(C)CC1)c1ccc(-c2cnn(C)c2)c(Cl)c1Cl (stereo not shown) ?
0.013

Which IC50 is reported with GHSR1a (Homo sapiens) for this entry: CC(NC(=O)N(O)C1CCN(C)CC1)c1ccc(-c2cnccn2)c(Cl)c1Cl (stereo not shown) ?
0.013

Which IC50 is reported with GHSR1a (Homo sapiens) for this entry: CC(NC(=O)N(C)C1CCN(C)CC1)c1ccc(C#Cc2ccc(CO)s2)c(Cl)c1Cl (stereo not shown) ?
0.074

Which IC50 is reported with GHSR1a (Homo sapiens) for this entry: CC(NC(=O)N(C)C1CCN(C)CC1)c1ccc(-c2sccc2C(N)=O)c(Cl)c1Cl (stereo not shown) ?
3.4
